For Cathepsin D (Homo sapiens (Human)), measured IC50 is reported for the entries below.
Numeric answer only, unit µM assumed.

| compound | experimental_readout | units_symbol | result_number |
| --- | --- | --- | --- |
| CCCn1cc(-c2ccc(F)c(C3(C)CC4(CCOCC4)OC(N)=N3)c2)cn1 (centres unmarked) | IC50 | µM | 20.8 |
| CC1(c2cc(NC(=O)c3ccc(Cl)cn3)ccc2F)CC2(CCOCC2)SC(N)=N1 (centres unmarked) | IC50 | µM | 10.6 |
| CC#Cc1cncc(-c2csc(C3(C)CC4(CCC(F)(F)CC4)OC(N)=N3)c2)c1 (centres unmarked) | IC50 | µM | 6.29 |

Here is another compound to look at.
For CC1(c2cc(NC(=O)c3ccc(F)cn3)ccc2F)CC2(CCOCC2)SC(N)=N1 (centres unmarked) on Cathepsin D (Homo sapiens (Human)), measured IC50 was 15.6

###

Below is a list of entries, each paired with its recorded log10 IC50 value.
target: BACE1 (Homo sapiens (Human), UniProt P56817); test: BACE1 FP assay; format: biochemical; settings: pH 4.5
Sequence (P56817 46-501): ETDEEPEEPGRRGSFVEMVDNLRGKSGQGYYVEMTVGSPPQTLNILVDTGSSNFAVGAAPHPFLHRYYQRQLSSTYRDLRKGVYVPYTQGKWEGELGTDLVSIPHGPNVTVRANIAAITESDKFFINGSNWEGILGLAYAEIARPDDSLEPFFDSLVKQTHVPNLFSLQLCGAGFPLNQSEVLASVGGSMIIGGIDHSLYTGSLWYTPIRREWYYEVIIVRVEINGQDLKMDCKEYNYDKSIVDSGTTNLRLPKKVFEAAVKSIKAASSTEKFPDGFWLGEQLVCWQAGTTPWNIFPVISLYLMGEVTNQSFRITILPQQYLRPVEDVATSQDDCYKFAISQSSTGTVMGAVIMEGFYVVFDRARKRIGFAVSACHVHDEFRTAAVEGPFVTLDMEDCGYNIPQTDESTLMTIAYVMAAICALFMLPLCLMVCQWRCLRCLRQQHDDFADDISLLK
A difference of one corresponds to tenfold IC50; all values are log10 with IC50 in nM.

| compound | log10 IC50 |
| --- | --- |
| C[C@@]1(c2cc(NC(=O)c3ccc(F)cn3)ccc2F)CC2(COC2)SC(N)=N1 | 2.08 |

Recorded log10 IC50 (compound `C[C@@]1(c2cc(NC(=O)c3ccc(Cl)cn3)ccc2F)CC2(CC2)OC(N)=N1` ): 2.05

`C[C@]1(c2cc(NC(=O)c3ccc(F)cn3)ccc2F)CC2(CCC2)OC(N)=N1` yielded log10 IC50 of 3.87

###

Listed next: entries and their corresponding pIC50.
target: BACE1 (Homo sapiens (Human), UniProt P56817); assay: BACE1 FP assay; assay type: biochemical; conditions: pH 4.5
// pIC50 is dimensionless: -log10 of concentration (M)

Here's what some known entries look like.
| input_smiles | measured_target | pIC50 |
| --- | --- | --- |
| Cc1nc(C(=O)Nc2ccc(F)c([C@]3(C)CC4(CCC4)OC(N)=N3)c2)co1 | BACE1 (Homo sapiens (Human), UniProt P56817) | 6.52 |
| CC#Cc1cncc(-c2csc([C@]3(C)CC4(CCOCC4)OC(N)=N3)c2)c1 | BACE1 (Homo sapiens (Human), UniProt P56817) | 6.39 |
| C[C@]1(c2cc(NC(=O)c3ccc(C#N)cn3)ccc2F)N=C(N)OC2(CCC2)C1(F)F | BACE1 (Homo sapiens (Human), UniProt P56817) | 7.40 |

Here is another molecule to look at.
// pIC50 lookup, molecule = `C[C@@]1(c2cc(NC(=O)c3ccc(Cl)cn3)ccc2F)CC2(CCOCC2)OC(N)=N1` , result: 7.23

###

biological target: UniProt:P56817; test: BACE1 AlphaScreen assay (displacement of biotinylated BACE1 binding site probe); settings: read-out: BACE1 AS IC50
Below, each of the compounds is paired with its reported IC50 value.
Quick note: give the figure in nM, leave out the unit.

In the examples that follow, each entry is paired with its recorded IC50.
| compound | measured_target | units_symbol | result_number |
| --- | --- | --- | --- |
| CC1(c2cc(NC(=O)c3ccc(Cl)cn3)ccc2F)N=C(N)OC2(CCOCC2)C1(F)F (stereo not shown) | UniProt:P56817 | nM | 15 |
| COc1cccnc1Nc1ccc(F)c([C@]2(C)CC3(CCOCC3)SC(N)=N2)c1 | UniProt:P56817 | nM | 2 |

Below: the item to evaluate.
IC50 recorded for this compound, `COc1cc(Cl)ccc1C(=O)Nc1ccc(F)c([C@]2(C)CC3(CCC3)OC(N)=N2)c1` , is 101

###

molecular target: BACE1 (Homo sapiens (Human), UniProt P56817); assay: BACE1 AlphaScreen assay (displacement of biotinylated BACE1 binding site probe); details: read-out: BACE1 AS IC50
pIC50: −log10 of the molar value.
Lab note: compare pIC50 against 8. Equal or greater, write Satisfied. Smaller, write Not satisfied.

| compound | label |
| --- | --- |
| CC1(c2cc(NC(=O)c3ccc(F)cn3)ccc2F)N=C(N)OC2(CCOCC2)C1(F)F (centres unmarked) [Compound 9-155] | Not satisfied |
| C[C@@]1(c2cc(NC(=O)c3ccc(Cl)cn3)ccc2F)CC2(CCC2)SC(N)=N1 [Compound 9-145] | Satisfied |
| C[C@@]1(c2cc(NC(=O)c3ccc(Cl)cc3)ccc2F)CC2(CCC2)OC(N)=N1 [Compound 9-141] | Not satisfied |
| CC#Cc1cncc(-c2csc([C@@]3(C)CC4(CCOCC4)OC(N)=N3)c2)c1 [Compound 8-105] | Not satisfied |

Incoming: Can C[C@@]1(c2cc(NC(=O)c3ccc(F)cn3)ccc2F)N=C(N)OC2(CCOCC2)C1(F)F [Compound 9-156] be said to have pIC50 at or above 8?
Outgoing: Not satisfied

Incoming: pIC50 >= 8 for CC1(c2cc(NC(=O)c3ccc(F)cn3)ccc2F)CC2(CCOCC2)OC(N)=N1 (centres unmarked) [Compound 9-120] ?
Outgoing: Not satisfied

###

target: Cathepsin D (Homo sapiens (Human), UniProt P07339)
Sequence (P07339 65-412, species assumed): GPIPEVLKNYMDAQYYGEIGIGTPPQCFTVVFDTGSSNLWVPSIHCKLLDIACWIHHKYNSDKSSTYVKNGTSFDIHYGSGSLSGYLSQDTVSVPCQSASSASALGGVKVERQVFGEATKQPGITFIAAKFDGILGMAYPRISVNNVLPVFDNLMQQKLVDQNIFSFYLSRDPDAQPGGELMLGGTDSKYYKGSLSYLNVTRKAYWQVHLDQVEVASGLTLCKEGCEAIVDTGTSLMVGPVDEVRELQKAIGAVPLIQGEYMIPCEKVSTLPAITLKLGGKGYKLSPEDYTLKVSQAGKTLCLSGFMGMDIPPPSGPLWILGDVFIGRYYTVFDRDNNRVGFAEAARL
In this section we review reported IC50 values for a set of molecules.

Consider the worked cases shown below.
| molecule | IC50 |
| --- | --- |
| CC1(c2cc(-c3cncnc3)ccc2F)CC2(CCOCC2)OC(N)=N1 (centres unmarked) | > 30 µM |
| CC#Cc1cncc(-c2csc([C@@]3(C)CC4(CCOCC4)OC(N)=N3)c2)c1 | 5.25 µM |
| COc1cnc(C(=O)Nc2ccc(F)c([C@]3(C)CC4(CCOCC4)SC(N)=N3)c2)cn1 | > 30 µM |
| C[C@@]1(c2cc(NC(=O)c3ccc(Cl)cn3)ccc2F)CC2(CCOCC2)SC(N)=N1 | > 30 µM |
| C[C@]1(c2cc(NC(=O)c3ccc(F)cn3)ccc2F)CC2(CCOCC2)SC(N)=N1 | 21.5 µM |

Attention now shifts to the item below.
# molecule `C[C@@]1(c2cc(NC(=O)c3ccc(F)cn3)ccc2F)CC2(CCC2)OC(N)=N1` ; its IC50 = > 30 µM

###

biological target: BACE1 (Homo sapiens (Human)); test: BACE1 AlphaScreen assay (displacement of biotinylated BACE1 binding site probe); conditions: read-out: BACE1 AS IC50
experimental_readout: pIC50
pIC50 is a log-scale quantity: -log10 of the concentration expressed in molar.

Field: example entries. Status: answers known.
| compound | pIC50 |
| --- | --- |
| CC#Cc1cncc(-c2csc([C@]3(C)CC4(CCOCC4)OC(N)=N3)c2)c1 | 7.80 |
| Cc1nc(C(=O)Nc2ccc(F)c(C3(C)N=C(N)OC4(CCC4)C3(F)F)c2)co1 (stereo not shown) | 7.47 |
| C[C@@]1(c2cc(NC(=O)c3ccc(Br)cn3)ccc2F)CC2(CCC(F)(F)CC2)OC(N)=N1 | 8.15 |

Please look at the following compound next.
Recorded pIC50 (compound `COc1cnc(C(=O)Nc2ccc(F)c([C@]3(C)CC4(CCC4)OC(N)=N3)c2)cn1` ): 7.98

###

target: Cathepsin D (Homo sapiens (Human), UniProt P07339)
The entries below are paired with their reported pIC50.
Kindly note that pIC50 refers to -log10 of the concentration in mol/L and answer with the value alone.

| molecule | result_number |
| --- | --- |
| CC#Cc1cncc(-c2csc(C3(C)CC4(CCOCC4)SC(N)=N3)c2)c1 (stereo not shown) | 5.73 |

Item `C[C@]1(c2cc(NC(=O)c3ccc(Cl)cn3)ccc2F)CC2(CCOCC2)SC(N)=N1` was tested on Cathepsin D (Homo sapiens (Human), UniProt P07339); the reported pIC50 is 4.97

###

Molecular target: UniProt:P56817
Assay: BACE1 FP assay
Type: biochemical
Details: pH 4.5
Procedure: BACE1 activity can be assessed in an AlphaScreen® assay. Compounds to be assessed (e.g. compounds as described in the above examples) are serially diluted 1:4 in DMSO, then plated by diluting 10 μL of compound with 40 μl of assay buffer (1×PBS, 0.01% Tween-20, pH 7.0, 0.05% BSA). […] The fluorescent signal is read on a plate reader and the value as a function of compound concentration is used to determine the IC50. Compounds are also assessed for BACE1 and Cathepsin D activity using an FP Assay. […]
pIC50 listing for selected molecules.
Entry type: numeric. Quantity: pIC50, the -log10 of concentration in molar units.

Consider the reported pIC50 for these molecules:
| molecule | result_number |
| --- | --- |
| Cc1nc(C(=O)Nc2ccc(F)c(C3(C)N=C(N)OC4(CCC4)C3(F)F)c2)co1 (stereo not shown) [Compound 9-165] | 6.30 |
| C[C@]1(c2cc(NC(=O)c3ccc(F)cn3)ccc2F)CC2(CCC2)SC(N)=N1 [Compound 9-143] | 4.29 |
| C[C@@]1(c2cc(NC(=O)c3ccc(Cl)cn3)ccc2F)CC2(CCC2)OC(N)=N1 [Compound 9-129] | 6.97 |
| C[C@@]1(c2cc(NC(=O)c3ccc(F)cn3)ccc2F)CC2(CCC2)OC(N)=N1 [Compound 9-126] | 6.49 |
| CC1(c2cc(NC(=O)c3ccc(Cl)cn3)ccc2F)CC2(CCOCC2)SC(N)=N1 (stereo not shown) [Compound 9-150] | 8.40 |

Switching to the query record.
According to the records, this molecule CC1(c2cc(NC(=O)c3ccc(F)cn3)ccc2F)N=C(N)OC2(CCC2)C1(F)F (stereo not shown) [Compound 9-159] displays pIC50 of 6.68
